- tested_target: T1, human 5T4-His protein (human, UniProt Q13641 32-355)
- T1 construct: also called recombinant 5T4 protein (human 5T4-his tag); human 5T4 protein; not shown: His tag
- T1 sequence (looked up): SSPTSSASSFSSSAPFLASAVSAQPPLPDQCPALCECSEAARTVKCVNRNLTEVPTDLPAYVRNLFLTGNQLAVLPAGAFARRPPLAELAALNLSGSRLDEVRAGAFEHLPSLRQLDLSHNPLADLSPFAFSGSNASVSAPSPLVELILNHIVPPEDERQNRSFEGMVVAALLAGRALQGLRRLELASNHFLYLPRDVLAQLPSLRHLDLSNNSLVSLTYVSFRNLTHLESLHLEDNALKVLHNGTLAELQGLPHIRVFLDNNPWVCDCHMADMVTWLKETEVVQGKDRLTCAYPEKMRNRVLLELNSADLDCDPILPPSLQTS
- protocol_summary: SPR Biacore, Protein A capture
pKd: −log10 of the molar value.
Entries and their pKd
observable: pKd

Hu14G12-15 (antibody, V domains shown, humanized) VH: EVQLVQSGAEVKKPGATVKISCKASGYAFSSSWMNWVKQAPGKGLEWIGRIYREDGHTNYNGKFKGRATITADTSTTTAYMELSSLRSEDSAVYFCANGGAMDYWGQGTLVTVSS VL: DIQMTQSPSSLSASVGDRVTISCRASQDISNYLNWYQQKPGKAVKLLIYYTSRLHSGVPSRFSGSGSGTDFTFTISSLQPEDIATYFCQQDNTLPWTFGGGTKLEIK	8.50
Hu14G12-18 (antibody, V domains shown, humanized) VH: QVQLVQSGAEVKKPGSSVKVSCKASGGTFSSSWMNWVKQAPGQGLEWIGRIYREDGHTNYNGKFKGKATLTADKSTSTAYMELSSLRSEDTAVYFCANGGAMDYWGQGTTVTVSS VL: DIQMTQSPSSLSASVGDRVTITCRASQDISNYLNWYQQKPGKVPKLLIYYTSRLHSGVPSRFSGSGSGTDYTLTISSLQPEDVATYFCQQDNTLPWTFGGGTKLEIK	8.34

The reported measurements were obtained from patent US20250154277A1.
